- Experimental System: HCV NS5b RNA dependent RNA polymerase (Hepatitis C virus genotype 1a, UniProt P27958)
- Sequence (P27958 2421-3011): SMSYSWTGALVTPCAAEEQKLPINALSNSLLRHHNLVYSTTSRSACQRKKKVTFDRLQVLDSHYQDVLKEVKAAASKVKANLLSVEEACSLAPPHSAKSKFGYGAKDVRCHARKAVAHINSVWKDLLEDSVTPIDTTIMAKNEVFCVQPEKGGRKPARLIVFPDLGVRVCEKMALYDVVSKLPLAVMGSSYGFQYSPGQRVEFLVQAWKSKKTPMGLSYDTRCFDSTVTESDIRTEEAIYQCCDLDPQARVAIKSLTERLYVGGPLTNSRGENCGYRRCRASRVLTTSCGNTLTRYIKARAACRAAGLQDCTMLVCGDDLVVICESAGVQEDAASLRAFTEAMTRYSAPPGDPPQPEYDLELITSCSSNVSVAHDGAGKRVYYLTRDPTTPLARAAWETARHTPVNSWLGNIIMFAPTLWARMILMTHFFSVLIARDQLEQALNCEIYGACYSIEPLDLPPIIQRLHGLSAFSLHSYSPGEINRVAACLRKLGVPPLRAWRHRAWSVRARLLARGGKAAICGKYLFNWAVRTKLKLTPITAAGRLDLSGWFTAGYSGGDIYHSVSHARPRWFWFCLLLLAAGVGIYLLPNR
- Test: HCV NS5b RNA dependent RNA polymerase inhibition (scintillation proximity assay)
- Type: biochemical
- Conditions Used: concentration for 50% inhibition, class symbols; read-out: NS5B Inhibitory Activity
pIC50: −log10 of the molar value.
# pIC50 listing for each entry below

Use the examples below as a reference point.
O=C(O)/C(=C/c1ccc(Nc2ccccc2Cl)cc1)NC(=O)c1ccccc1: 4.52 to 4.96
O=C(O)/C(=C/c1ccc(-c2cc3ccccc3s2)o1)NC(=O)c1ccccc1: 4.52 to 4.96
O=C(O)/C(=C/c1ccc(F)c(-c2ccccc2Cl)c1)NC(=O)c1ccccc1: > 5.00

Please give measured pIC50 of the following entry: `O=C(O)/C(=C/c1cccc(Oc2ccccc2Cl)c1)NC(=O)c1ccccc1`
> 5.00

Annotate the compound `O=C(O)/C(=C/c1ccc(-c2ccc3c(c2)OCO3)o1)NC(=O)c1ccccc1` with its measured pIC50.
> 5.00

Using known records, supply pIC50 for `Cc1ccc(COc2ccc(/C=C(\NC(=O)c3ccccc3)C(=O)O)cc2)cc1`
4.52 to 4.96

Please give measured pIC50 of the following entry: `CCS(=O)(=O)c1ccc(-c2ccc(/C=C(\NC(=O)c3ccccc3)C(=O)O)o2)cc1`
< 4.52

Return pIC50 (reported value) for this compound: `O=C(O)/C(=C/c1ccc(Oc2ccccc2Br)cc1)NC(=O)c1ccccc1`
> 5.00
